Consider the following compounds; for each one, report its MIC.
Test system: E. coli 131119
Test: microbe, parasite or virus in culture
Format: cell-based
Settings: Escherichia coli, 131119, read-out: MIC compounds of the invention alone
Protocol: Compounds of the present invention were assessed against genotyped bacterial strains alone or in combination with the β-lactam ceftazidime (CAZ). […] Briefly, compounds alone according to the invention were prepared in DMSO and spotted (2 μL each) on sterile polystyrene plates (Corning, 3788). […] The MIC of the compounds was defined as the lowest concentration of said compounds that prevented bacterial growth as read by visual inspection.

Find the recorded MIC belonging to NC(=O)CON=C1C[C@@H](C(N)=O)N2C[C@@H]1N(OS(=O)(=O)[O-])C2=O.[Na+] (mixture of isomers) [Example 3] and report it.
> 32 µg/mL

Find the recorded MIC belonging to NC[C@@H]1CC(=NOCC(N)=O)[C@@H]2CN1C(=O)N2OS(=O)(=O)O (mixture of isomers) [Example 5] and report it.
> 32 µg/mL

Find the recorded MIC belonging to CNC(=O)CON=C1C[C@@H](C(=O)OC)N2C[C@@H]1N(OS(=O)(=O)[O-])C2=O.[Na+] (mixture of isomers) [Example 1] and report it.
> 32 µg/mL
